src = ChEMBL document CHEMBL5126593

- Experiment Notes: Permeability of the compound at pH 7.4 by PAMPA
- Format: ADME
- Test Parameters: read-out: permeability
Readout Label: Papp (×10⁻⁶ cm/s)
Report as a plain number; the unit ×10⁻⁶ cm/s is understood.

Query Papp for `N=C(N)Nc1ccc(C(=O)Oc2ccc(CC(=O)NCC(=O)O)cc2)cc1.O=C(O)C(F)(F)F`
0.2

* * *

- Experiment Notes: Cmax in mouse plasma at 60 mg/kg, po
- Assay type: ADME, organism-based
- Set-up: dose 60 mg/kg, route po
Readout Label: Cmax (ng/mL)
Response body: numeric value in ng/mL, unit text excluded.

Supply recorded Cmax for `Cl.N=C(N)Nc1ccc(C(=O)Oc2ccc(CC(=O)N[C@@H](CC(=O)O)C(=O)O)cc2)cc1` here.
1360

* * *

- Experiment Notes: Aqueous stability of the compound at pH 6.8 assessed as compound decomposition measured after 24 hrs by HPLC analysis
- Format: physicochemical
- Test Parameters: aqueous solution, read-out: Drug degradation
Readout Label: degraded at 24 h (%)

Cl.N=C(N)Nc1ccc(C(=O)Oc2ccc(CC(=O)N[C@@H](CC(=O)O)C(=O)O)cc2)cc1 = 5

[P] N=C(N)Nc1ccc(C(=O)Oc2cccc(C(=O)N[C@@H](CC(=O)O)C(=O)O)c2)cc1
[Q] N=C(N)Nc1ccc(C(=O)Oc2cccc(CC(=O)N[C@@H](CC(=O)O)C(=O)O)c2)cc1
# returns the entry with the larger degraded at 24 h; inputs P and Q State your choice using its label.
P

* * *

- Experiment Notes: Tmax in mouse plasma at 10 mg/kg, sc
- Assay type: ADME, organism-based
Readout Label: Tmax (min)
The figure you give is taken to be in min; do not add the unit.

Hello, please tell me recorded Tmax for this one: `Cl.N=C(N)Nc1ccc(C(=O)Oc2ccc(CC(=O)N[C@@H](CC(=O)O)C(=O)O)cc2)cc1`
30

* * *

- Experiment Notes: MRT in mouse plasma at 10 mg/kg, sc
- Format: ADME, organism-based
Readout Label: MRT (min)
Output spec: scalar in min, unitless text.

Output MRT of `Cl.N=C(N)Nc1ccc(C(=O)Oc2ccc(CC(=O)N[C@@H](CC(=O)O)C(=O)O)cc2)cc1`
58.8

* * *

- Experiment Notes: Aqueous stability of the compound at pH 1.2 assessed as compound decomposition measured after 24 hrs by HPLC analysis
- Type: physicochemical
- Test Parameters: aqueous solution, read-out: Drug degradation
Readout Label: degraded at 24 h (%)

N=C(N)Nc1ccc(C(=O)Oc2cccc(C(=O)N[C@@H](CC(=O)O)C(=O)O)c2)cc1 = 3.9
Cl.N=C(N)Nc1ccc(C(=O)Oc2ccc(CC(=O)N[C@@H](CC(=O)O)C(=O)O)cc2)cc1 = 2.5
N=C(N)Nc1ccc(C(=O)Oc2cccc(CC(=O)N[C@@H](CC(=O)O)C(=O)O)c2)cc1 = 2.8

* * *

- Experiment Notes: Tmax in mouse plasma at 60 mg/kg, po
- Format: ADME, organism-based
Readout Label: Tmax (h)
// note: answer is a bare numeric in h

Supply Tmax value. Item: `Cl.N=C(N)Nc1ccc(C(=O)Oc2ccc(CC(=O)N[C@@H](CC(=O)O)C(=O)O)cc2)cc1`
1.67
